- STUDY_SYSTEM: canine TRPM8 (Canis lupus familiaris, UniProt Q1A7N1)
- Construct: expressed in transfected cells
- Sequence (Q1A7N1 1-1104): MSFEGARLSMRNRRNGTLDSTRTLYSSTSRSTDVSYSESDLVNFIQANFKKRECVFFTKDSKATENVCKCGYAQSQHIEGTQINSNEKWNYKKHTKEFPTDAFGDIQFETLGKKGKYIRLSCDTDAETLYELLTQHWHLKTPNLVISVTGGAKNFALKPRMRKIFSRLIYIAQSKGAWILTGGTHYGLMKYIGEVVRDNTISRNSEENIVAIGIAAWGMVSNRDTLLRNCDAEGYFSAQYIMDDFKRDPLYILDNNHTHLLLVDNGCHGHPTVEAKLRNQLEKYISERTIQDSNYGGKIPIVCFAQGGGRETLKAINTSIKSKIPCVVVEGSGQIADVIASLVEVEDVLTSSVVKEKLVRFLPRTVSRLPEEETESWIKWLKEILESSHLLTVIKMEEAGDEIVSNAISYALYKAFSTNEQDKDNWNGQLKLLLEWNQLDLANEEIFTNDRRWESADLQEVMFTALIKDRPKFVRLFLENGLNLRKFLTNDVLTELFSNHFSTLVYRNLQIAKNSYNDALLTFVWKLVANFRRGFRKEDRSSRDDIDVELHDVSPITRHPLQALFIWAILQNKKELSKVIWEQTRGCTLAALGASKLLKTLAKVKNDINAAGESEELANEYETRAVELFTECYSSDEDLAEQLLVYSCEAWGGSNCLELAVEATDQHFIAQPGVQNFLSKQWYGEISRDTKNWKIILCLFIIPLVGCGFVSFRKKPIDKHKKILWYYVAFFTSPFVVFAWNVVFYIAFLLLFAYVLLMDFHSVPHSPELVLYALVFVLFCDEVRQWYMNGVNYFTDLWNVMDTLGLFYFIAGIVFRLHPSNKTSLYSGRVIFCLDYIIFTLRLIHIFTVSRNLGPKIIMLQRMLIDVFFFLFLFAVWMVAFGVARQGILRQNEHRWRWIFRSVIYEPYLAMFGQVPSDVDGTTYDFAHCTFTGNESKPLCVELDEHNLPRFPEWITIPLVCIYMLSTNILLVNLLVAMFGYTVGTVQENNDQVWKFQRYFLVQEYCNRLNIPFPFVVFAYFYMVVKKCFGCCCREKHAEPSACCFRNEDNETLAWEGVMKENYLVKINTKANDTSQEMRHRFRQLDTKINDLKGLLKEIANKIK
- PROTOCOL_NOTES: In Vitro Canine TRPM8 Functional Assay (Ca2+ fluorescence, icilin activation)
- Type: cell-based
- APPLIED_CONDITIONS: HEK293 cells stably expressing canine TRPM8; icilin activation; Ca2+ fluorescence
- Experimental: The functional activity of compounds of the formula (I) was determined by measuring changes in intracellular calcium concentration using a Ca^2+-sensitive fluorescent dye. The changes in fluorescent signal were monitored by a fluorescence plate reader, either a FLIPR™ (Molecular Devices) or FDSS (Hamamatsu). Increases in intracellular Ca^2+ concentration were readily detected upon activation with icilin. […]
Note to self: use 1 only for IC50 readings below 0.03 µM; a reading exactly at 0.03 µM still gets -1.

>  <MOLECULE>
O=C(C(Nc1ccccc1F)c1cc2cccnc2s1)N1CCCC1c1ccccc1F (stereo not shown) [Cpd 328]

>  <CAT>
1

$$$$
>  <MOLECULE>
O=C(O)c1ccc(-c2ccc(C(Nc3ccccc3F)C(=O)N3CCCC3c3ccccc3F)cc2)cc1 (stereo not shown) [Cpd 295]

>  <CAT>
-1

$$$$
>  <MOLECULE>
CC(C)(C)c1ccc(C(Nc2ccccc2)C(=O)N2CCCC2c2ccccc2)cc1 (stereo not shown) [Cpd 12]

>  <CAT>
-1

$$$$
>  <MOLECULE>
CC(C)(C)c1ccc(C(Nc2ccccc2F)C(=O)N2CCC[C@H]2c2ccccc2F)cn1 (single isomer, unassigned) [Cpd 357]

>  <CAT>
1

$$$$
>  <MOLECULE>
O=C(C(Nc1ccccc1)c1ccc(C(F)(F)F)cc1)N1CCCC1c1ccncc1 (stereo not shown) [Cpd 28]

>  <CAT>
-1

$$$$
>  <MOLECULE>
O=C(C(Nc1ccccc1)c1ccc(C(F)(F)F)cc1)N1CCCC1c1ccccc1Cl (single isomer, unassigned) [Cpd 61]

>  <CAT>
-1

$$$$
>  <MOLECULE>
CN(C)c1ccc(C2CCCN2C(=O)C(Nc2ccccc2F)c2ccc(C(F)(F)F)cc2)cc1 (stereo not shown) [Cpd 178]

>  <CAT>
1

$$$$
>  <MOLECULE>
O=C(C(Nc1ccccc1F)c1cnc2ccccc2c1)N1Cc2ccccc2C1 (stereo not shown) [Cpd 371]

>  <CAT>
-1

$$$$
>  <MOLECULE>
CC(C)(C)c1ccc(C(Nc2ccccc2)C(=O)N2CCCC2c2ccc(Cl)cc2)cc1 (single isomer, unassigned) [Cpd 367]

>  <CAT>
-1

$$$$
>  <MOLECULE>
O=C(C(Nc1ccccc1F)c1ccc(N2CCCCC2)nc1)N1CCC[C@H]1c1ccccc1F (mixture of isomers) [Cpd 334]

>  <CAT>
1

$$$$
>  <MOLECULE>
CC(C)(C)c1ccc(C(Nc2ccccc2)C(=O)N2CCC(O)(c3ccccn3)CC2)cc1 (stereo not shown) [Cpd 4]

>  <CAT>
-1

$$$$
>  <MOLECULE>
COC(=O)C1CCC(c2ccccc2)N1C(=O)C(Nc1c(F)cccc1F)c1ccc(Br)cc1 (stereo not shown) [Cpd 210]

>  <CAT>
1

$$$$
>  <MOLECULE>
O=C(C(CNc1ccccc1)c1ccc(C(F)(F)F)cc1)N1Cc2ccccc2C1 (stereo not shown) [Cpd 100]

>  <CAT>
-1

$$$$
>  <MOLECULE>
O=C(C(Nc1ccccc1F)c1ccc(-c2ccccn2)cc1)N1CCCC1c1ccccc1Cl (single isomer, unassigned) [Cpd 338]

>  <CAT>
1

$$$$
>  <MOLECULE>
O=C(C(Nc1ccccc1)c1ccc(Cl)cc1)N1CCCC1c1ccccc1F (stereo not shown) [Cpd 142]

>  <CAT>
1

$$$$
>  <MOLECULE>
O=C(C(Nc1ccccc1F)c1cc2ccccc2s1)N1CCCC1c1cccnc1 (stereo not shown) [Cpd 319]

>  <CAT>
1

$$$$
>  <MOLECULE>
COc1ccc(NC(C(=O)N2CCCC2c2ccccc2)c2ccc(Cl)cc2)cc1 (stereo not shown) [Cpd 139]

>  <CAT>
-1

$$$$
>  <MOLECULE>
O=C(C(Nc1ccccc1F)c1ccc(Br)cc1)N1[C@@H](CO)CC[C@H]1c1ccccc1 (single isomer, unassigned) [Cpd 242]

>  <CAT>
-1

$$$$
>  <MOLECULE>
Nc1cccc(C2CCCN2C(=O)C(Nc2ccccc2F)c2ccc(C(F)(F)F)cc2)c1 (stereo not shown) [Cpd 305]

>  <CAT>
1

$$$$
>  <MOLECULE>
O=C(C(c1ccc(C(F)(F)F)cc1)N1CCc2ccccc21)N1CCC[C@H]1c1cccnc1 (single isomer, unassigned) [Cpd 274]

>  <CAT>
1

$$$$
>  <MOLECULE>
O=C(C(CNc1ccccc1)c1ccc(C(F)(F)F)cc1)N1CCCC1c1ccccc1 (mixture of isomers) [Cpd 94]

>  <CAT>
-1

$$$$
>  <MOLECULE>
COc1ccccc1C1CCCN1C(=O)C(Nc1ccccc1F)c1ccc(Br)cc1 (single isomer, unassigned) [Cpd 175]

>  <CAT>
-1

$$$$
>  <MOLECULE>
O=C(C(Nc1ccccc1)c1ccc(C(F)(F)F)cc1)N1CCCC1c1nccs1 (stereo not shown) [Cpd 49]

>  <CAT>
-1

$$$$
>  <MOLECULE>
Nc1ccc(C2CCCN2C(=O)C(Nc2ccccc2F)c2ccc(C(F)(F)F)cc2)cc1 (stereo not shown) [Cpd 266]

>  <CAT>
1

$$$$
>  <MOLECULE>
COc1ccccc1C1CCCN1C(=O)C(Nc1ccc(F)cc1F)c1ccc(Cl)cc1 (stereo not shown) [Cpd 124]

>  <CAT>
-1

$$$$
>  <MOLECULE>
CC(C)(C)OC(=O)N1CC=C(c2ccc(C(Nc3ccccc3F)C(=O)N3CCCC3c3ccccc3F)cc2)CC1 (stereo not shown) [Cpd 299]

>  <CAT>
-1

$$$$
>  <MOLECULE>
O=C(C(Nc1ccccc1F)c1ccc(C(F)(F)F)cc1)N1CCCC1c1ccccc1 (single isomer, unassigned) [Cpd 129]

>  <CAT>
-1

$$$$
>  <MOLECULE>
O=C(C(Nc1ccc(F)cc1F)c1ccc(Cl)cc1)N1Cc2ccccc2C1 (stereo not shown) [Cpd 126]

>  <CAT>
-1

$$$$
>  <MOLECULE>
O=C(C(Nc1ccccc1F)c1ccc(-c2ccccc2)nc1)N1CCC[C@H]1c1ccccc1F (single isomer, unassigned) [Cpd 307]

>  <CAT>
1

$$$$
